Provenance of the data: paper PMC12057046

B1: TET3 peptide 1705-1720 (methylcytosine dioxygenase TET3), 16-mer library wild type / USP8 rhodanese domain (ubiquitin carboxyl-terminal hydrolase 8, residues 174-317) (parent)
chain 1: GLALWEAKMKQLAERA
chain 2: KCETKEKGAITAKELYTMMTDKNISLIIMDARRMQDYQDSCILHSLSVPEEAISPGVTASWIEAHLPDDSKDTWKKRGNVEYVVLLDWFSSAKDLQIGTTLRSLKDALFKWESKTVLRNEPLVLEGGYENWLLCYPQYTTNAKV

- Variants of: B1
- EXPERIMENTAL DETAILS: peptide-phage display deep mutational scan (M13, 16-mer library, displayed with a C-terminal GGGSG linker encoded by the 3' flank) selected against the GST-tagged USP8 rhodanese domain, four rounds; NGS counts summed over selection …
- EXPERIMENTAL CONDITIONS: with USP8 rhodanese domain (ubiquitin carboxyl-terminal hydrolase 8, residues 174-317), 10 µg GST-bait on MaxiSorp, pre-cleared on GST, 2 h at 4 °C, five washes with 0.05% Tween 20 in PBS, not graded, scale: average over two replicas of the peptide's fractional NGS count
OUTCOME MEASURE: screen value

Recorded screen value, per entry:
{"MUTANT NAME": "chain 1 M9S", "screen value": 0.0119}
{"MUTANT NAME": "chain 1 Q11L", "screen value": 0.0108}
{"MUTANT NAME": "chain 1 G1Q", "screen value": "8.66e-06"}
{"MUTANT NAME": "chain 1 R15S", "screen value": 0.0149}
{"MUTANT NAME": "chain 1 E14Q", "screen value": "4.03e-05"}
{"MUTANT NAME": "chain 1 A16H", "screen value": "2.3e-05"}
{"MUTANT NAME": "chain 1 L12M", "screen value": "4.33e-06"}
{"MUTANT NAME": "chain 1 Q11N", "screen value": 0.00283}

[A] chain 1 L2I
[B] chain 1 E14L
[C] chain 1 L4I
Thanks in advance: please rank these 3 entries by screen value, highest to lowest. // ordering of labels required in reply
C, A, B

[P] chain 1 A16I
[Q] chain 1 A16R
Given P and Q , report the one with the higher recorded screen value. // return label of chosen record
P
(P: 0.00523, Q: 8.66e-06)

[P] chain 1 L2H
[Q] chain 1 Q11S
[R] chain 1 L2M
Thanks in advance: please rank these 3 entries by screen value, highest to lowest. // ordering of labels required in reply
Q, R, P

[1] chain 1 E14G
[2] chain 1 E14Y
[3] chain 1 E14F
Which order do these items take when sorted by rising screen value? List them. // ordering of labels required in reply
2, 3, 1
(2: 2.3e-05, 3: 0.000199, 1: 0.000341)
